# Tested on: HCT116 p97P510S
# PROCEDURE DETAILS: Cellular viability, resistant HCT116 p97P510S
# Format: cell-based
# CONDITION PARAMETERS: Table S3, four replicates
# Experimental: Drug-resistant HCT116 cell lines were derived using the method previously described and with certain modifications[70],[99]. […] Anti-proliferative activity was measured using CellTiter Glo® Luminescent Cell Viability Assay (Promega G7572) according to the manufacturer’s procedure as described. […] A standard curve of HCT116 was generated for finding the linear relationship between the relative luminescence unit and the number of viable cells. […]
MEASUREMENT NAME: IC50 (µM)
Respond with the bare value in µM.

I am curious: what IC50 value has been reported for CC1CCCC(C)N1CCOc1cc([N+](=O)[O-])ccc1C#N (stereo not shown) ?
9.6

====

# MEASUREMENT TARGET: wild-type p97 (p97^WT) (Homo sapiens)
# Construct: made in house
# Sequence (P55072 whole entry): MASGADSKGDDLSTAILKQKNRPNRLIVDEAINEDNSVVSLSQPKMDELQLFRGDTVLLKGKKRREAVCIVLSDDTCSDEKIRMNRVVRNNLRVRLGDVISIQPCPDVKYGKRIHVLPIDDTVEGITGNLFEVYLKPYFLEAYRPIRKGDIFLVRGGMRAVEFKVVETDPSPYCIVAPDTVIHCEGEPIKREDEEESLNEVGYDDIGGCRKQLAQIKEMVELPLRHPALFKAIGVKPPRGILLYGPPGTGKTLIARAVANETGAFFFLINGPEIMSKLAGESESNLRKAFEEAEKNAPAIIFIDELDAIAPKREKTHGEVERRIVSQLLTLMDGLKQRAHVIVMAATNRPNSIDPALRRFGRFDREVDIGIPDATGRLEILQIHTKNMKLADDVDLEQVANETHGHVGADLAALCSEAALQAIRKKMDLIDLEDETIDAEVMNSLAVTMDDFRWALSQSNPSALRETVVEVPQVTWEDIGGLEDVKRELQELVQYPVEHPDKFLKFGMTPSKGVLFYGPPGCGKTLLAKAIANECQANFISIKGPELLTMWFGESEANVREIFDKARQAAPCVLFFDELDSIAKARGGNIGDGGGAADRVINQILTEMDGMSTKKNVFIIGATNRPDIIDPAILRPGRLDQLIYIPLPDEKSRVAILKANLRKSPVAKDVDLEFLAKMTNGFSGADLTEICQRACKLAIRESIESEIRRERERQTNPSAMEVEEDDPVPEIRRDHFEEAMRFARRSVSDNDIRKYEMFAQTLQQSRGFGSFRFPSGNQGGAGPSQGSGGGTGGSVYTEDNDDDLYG
# PROCEDURE DETAILS: p97 ATPase activity (Biomol Green), wild-type p97
# Assay type: biochemical
# CONDITION PARAMETERS: inhibitor 0.008148 µM
# Protocol: Results were calculated from 6 replicates using GraphPad Prism 7.0 (GraphPad Software, Boston, MA).
MEASUREMENT NAME: % ATPase activity (%)
Respond with the bare value in %.

I am curious: what % ATPase activity value has been reported for Cc1cc(OCc2nnc(SC3CCCC3)n2-c2cccnc2)ccc1-c1ccc(S(C)(=O)=O)cc1 [NMS-873, reference compound] ?
88

I am curious: what % ATPase activity value has been reported for CCC(=O)NCC#Cc1cc(F)c(OCc2nnc(S[C@H]3C=CCCC3)n2-c2cccnc2)cc1F ?
72

I am curious: what % ATPase activity value has been reported for C[C@@H]1CN(C(=O)Cn2ncc(-c3cc(F)c(OCc4nnc(S[C@H]5C=CCCC5)n4-c4cccnc4)cc3F)n2)C[C@H](C)O1 ?
71

I am curious: what % ATPase activity value has been reported for CN1CCC(NC(=O)OCC#Cc2c(F)cc(OCc3nnc(S[C@H]4C=CCCC4)n3-c3cccnc3)cc2F)CC1 ?
67

====

Would you kindly list % ATPase activity for each of these compounds?
# MEASUREMENT TARGET: wild-type p97 (p97^WT) (Homo sapiens)
# Construct: made in house
# PROCEDURE DETAILS: p97 ATPase activity (Biomol Green), wild-type p97
# Format: biochemical
# CONDITION PARAMETERS: inhibitor 0.073333 µM
Respond with the bare value in %.

I am curious: what % ATPase activity value has been reported for CCC(=O)NCC#Cc1cc(F)c(OCc2nnc(S[C@H]3C=CCCC3)n2-c2cccnc2)cc1F ?
16

I am curious: what % ATPase activity value has been reported for CN1CCC(NC(=O)OCC#Cc2c(F)cc(OCc3nnc(S[C@H]4C=CCCC4)n3-c3cccnc3)cc2F)CC1 ?
15

I am curious: what % ATPase activity value has been reported for C[C@@H]1CN(C(=O)Cn2ncc(-c3cc(F)c(OCc4nnc(S[C@H]5C=CCCC5)n4-c4cccnc4)cc3F)n2)C[C@H](C)O1 ?
23

I am curious: what % ATPase activity value has been reported for Cc1cc(OCc2nnc(SC3CCCC3)n2-c2cccnc2)ccc1-c1ccc(S(C)(=O)=O)cc1 [NMS-873, reference compound] ?
28

Where do these numbers come from? They come from paper PMC11316111.
